Test system: SNB-19 CNS
test-protocol: NCI tumour cell line growth inhibition, 48 h; in the data active = GI50 below about 0.43 µM; inactive = the rest
Outcome codes: active, inactive

- compound: "CC[C@@]1(O)C(=O)OCc2c1cc1n(c2=O)Cc2cc3cc(Cl)ccc3nc2-1"
  class-assignment: "active"
- compound: "O=C1c2c(O)cccc2C(C(=O)CCCCCC(=O)C2c3cccc(O)c3C(=O)c3c(O)cccc32)c2cccc(O)c21"
  class-assignment: "inactive"
- compound: "C[C@@H](Nc1nc(N[C@H](C)C(F)(F)F)nc(-c2cccc(Cl)n2)n1)C(F)(F)F"
  class-assignment: "inactive"
- compound: "COc1ccc2[nH]c(Cl)c(/C=C3/C(=O)Nc4ccccc43)c2c1"
  class-assignment: "inactive"
- compound: "CCn1cnc(C[C@H](NC(=O)[C@H](CCCCNC(=O)Nc2cc(C(F)(F)F)cc(C(F)(F)F)c2)NC(=O)Nc2cc(C(F)(F)F)cc(C(F)(F)F)c2)C(=O)OC)c1"
  class-assignment: "inactive"
- compound: "COc1ccccc1-n1cnc(N)c1C(=O)c1cc(OC)c(OC)c(OC)c1"
  class-assignment: "inactive"
- compound: "O=CC(OC(=O)c1ccccc1)C(OC(=O)c1ccccc1)C(COC(c1ccccc1)(c1ccccc1)c1ccccc1)OC(=O)c1ccccc1 (stereo not drawn)"
  class-assignment: "inactive"
- compound: "C[C@@H]1CC[C@H]2[C@@H](C)C(O)O[C@@H]3O[C@]4(C)CC[C@@H]1[C@]32OO4 (stereo partly drawn)"
  class-assignment: "inactive"

* * *

Tested on: M14 melanoma
test-protocol: NCI tumour cell line growth inhibition, 48 h; in the data active = GI50 below about 0.43 µM; inactive = the rest
Outcome codes: active, inactive

- compound: "CCn1cnc(C[C@H](NC(=O)[C@H](CCCCNC(=O)Nc2cc(C(F)(F)F)cc(C(F)(F)F)c2)NC(=O)Nc2cc(C(F)(F)F)cc(C(F)(F)F)c2)C(=O)OC)c1"
  class-assignment: "inactive"
- compound: "COc1ccccc1-n1cnc(N)c1C(=O)c1cc(OC)c(OC)c(OC)c1"
  class-assignment: "inactive"
- compound: "C=CC(=O)N[C@@H]1CN(c2nc(Nc3cn(C)nc3OC)c3ncn(C)c3n2)C[C@H]1F"
  class-assignment: "inactive"
- compound: "O=C(Nc1ccc(OS(=O)(=O)c2ccc(F)cc2)cc1)C12CC3CC(CC(C3)C1)C2"
  class-assignment: "inactive"
- compound: "CCN(C(=O)N1CCN(c2cc3c(cc2F)c(=O)c(C(=O)O)cn3C2CC2)CC1)c1nc(-c2ccccc2)cs1"
  class-assignment: "inactive"
- compound: "COc1ccc(C(=O)/C=C/c2sc(Cl)nc2Cl)cc1"
  class-assignment: "inactive"
- compound: "Nc1nc(N)c2c(n1)NC(c1sc(Cl)nc1Cl)CC(c1ccccc1)=N2 (stereo unspecified)"
  class-assignment: "inactive"
- compound: "C[C@H]1CCC/C=C/C2CC(OC(=O)CN(C)C)CC2C(OC(=O)CN(C)C)/C=C/C(=O)O1 (stereo partly specified)"
  class-assignment: "active"
- compound: "COc1ccc2[nH]c(Cl)c(/C=C3/C(=O)Nc4ccccc43)c2c1"
  class-assignment: "active"
- compound: "C1=N[C@]23C(=N[C@H](N=C2NCc2ccco2)[C@]24N=CNC2=N[C@H]3N=C4NCc2ccco2)N1"
  class-assignment: "inactive"
- compound: "C[C@@H](Nc1nc(N[C@H](C)C(F)(F)F)nc(-c2cccc(Cl)n2)n1)C(F)(F)F"
  class-assignment: "inactive"
